These entries and their values trace back to a melting point compilation (Tetko et al.; mined from patent text by program, amines drawn as free bases though some values may be those of a salt).

The following molecules are shown together with reported melting point values.

Some solved cases for reference:
Ask | Recorded melting point of O=C1COC2(CCN(CCC3COc4ccccc4O3)CC2)CN1 (stereo not given) , please.
Reply | 139 to 140 °C

Ask | Recorded melting point of "CN1N=C(c2ccc(F)cc2)c2cc3nsnc3cc2CS1(=O)=O" , please.
Reply | 272 to 275 °C

Ask | Recorded melting point of "CC(C)N(CCN1C(=O)/C(=N/NC(N)=O)c2ccccc21)C(C)C" , please.
Reply | 189 to 191 °C

Ask | Recorded melting point of "Cc1ccc(-c2ccccc2NC(=O)NN)cc1" , please.
Reply | 148 to 151 °C

Ask | Recorded melting point of "Cn1ccc(C(=O)c2ccc(Cl)cc2)c1" , please.
Reply | 48 to 50 °C

Ask | Recorded melting point of "c1ccc2c(c1)nc(Nc1ccc3cc[nH]c3c1)c1nc(C3CCCC3)[nH]c12" , please.
Reply | 260 to 261 °C

Ask | Recorded melting point of "CCOC(=O)Cc1nnc2c(CC(C)C)nc(-c3ccccc3)cn12" , please.
Reply | 105 to 107 °C

Ask | Recorded melting point of "O=C(C1CCN(c2ccncc2)CC1)N1CCN(Cc2ccc(Br)cc2)CC1" , please.
Reply | 148 to 149 °C

Continuing:
Ask | Recorded melting point of O=C(CCl)NC(C(=O)O)N(C(=O)CCl)c1cscn1 (stereo not given) , please.
Reply | 184 to 186 °C

Ask | Recorded melting point of "O=C1CC(=O)CC(c2ccccc2Cl)C1" , please.
Reply | 157 to 158 °C

Ask | Recorded melting point of COc1cc2cc(C(=O)N3CC(CCl)c4c3cc([N+](=O)[O-])c3cc(S(=O)(=O)NCCO)ccc43)[nH]c2c(OC)c1OC (stereo not given) , please.
Reply | 257 to 258 °C

Ask | Recorded melting point of "O=P1(O)Oc2ccccc2-c2cc(F)ccc21" , please.
Reply | 240 °C

Ask | Recorded melting point of O=C(O)C1=Cc2cc(Cl)c(Oc3ccc(Cl)cc3Br)cc2OC1C(F)(F)F (stereo not given) , please.
Reply | 224 to 226 °C
